Values were extracted from patent US8008547B2.

Protocol Text: Standard protocol for determination of kcat and KM (continuous spectrophotometric assay, Acetyl CoA hydrolysis at 235 nm)
Type: biochemical
Assay Setup: purified protein; about 23° C.; 20 mM HEPES pH 6.8, 10% ethylene glycol, 0.2 mM acetyl CoA
Protocol: KM was calculated from the initial reaction rates obtained from concentrations of glyphosate ranging from 0.125 to 10 mM, using the Lineweaver-Burke transformation of the Michaelis-Menten equation. kcat/KM was determined by dividing the value determined for kcat by the value determined for KM. Using this methodology, kinetic parameters for a number of GAT polypeptides exemplified herein were determined. […]
Readings of Kcat for the listed molecules
Numbers only here, please. The scale is s⁻¹.

[[record]]
molecule = "SEQ ID NO: 309: GAT polypeptide (protein, 14_11C2, GAT polypeptide) MIEVKPINAEDTYEIRHRILRPNQPLEACKYETDLLGSTFHLGGYYRGKLVSIASFHQAEHPELEGQKQYQLRGMATLEEYREQKAGSTLIRHAEALLRKKGADLLWCNARTSASGYYKKLGFSEQGEVYDTPPTGPHILMYKKLT"
test_result = 1.812


Turning now to a further record.
For the molecule shown here, SEQ ID NO: 367: GAT polypeptide (protein, 4B_13E1, GAT polypeptide) MIEVKPINAEDTYEIRHRILRPNQPLEACKYETDLLGGTFHLGGYYRGKLISIASFHQAEHPELEGQKQYQLRGMATLEEYREQKAGSTLIRHAEELLRKKGADLLWCNARISASGYYEKLGFSEQGEVYDIPPIGPHILMYKKLT , give the reported Kcat.
0.62
